Tested on: HCC-2998 colon
Protocol Text: NCI tumour cell line growth inhibition, 48 h; in the data active means GI50 below about 0.43 µM; inactive means the rest
Possible outcomes: active, inactive

| Compound | Class Assignment |
| --- | --- |
| O=C1OCC2=C1C(c1cccc(C(F)(F)F)c1)c1cc3c(cc1N2CCO)OCCO3 (centres undefined) | inactive |
| OCCCCC#Cc1ccccc1C#Cc1cccnc1 | inactive |
| Cc1ccc(S(=O)(=O)n2cc([C@@]3(O)C[C@H](CSC#N)OC3=O)c3ccccc32)cc1 | inactive |
| O=C(O)COc1ccc(OCC(=O)O)cc1 | inactive |
| C=CC1C(CC2OC(CO)C(O)C(O)C2O)OC=C2C(=O)OCCC21O (centres undefined) | inactive |
| CCN(CC)CCCNCc1cc(-c2ccccc2)nc2cc(Cl)ccc12 | inactive |
| CCCCCCCC(=O)[O-].CCCCCCCC(=O)[O-].N.N.N.N.[Co+3].[O-][Cl+3]([O-])([O-])[O-] | inactive |
| Cc1ccc2oc(=O)c3c(O)c4cccc(OC5OC(C)C6O[C@@H](c7ccccc7)OC6C5OC5OC(C)C(O)C(O)C5O)c4c4oc(=O)c1c2c34 (some centres undefined) | active |
| CN1CCN(Cc2ccc(NC(=O)c3[nH]ncc3Nc3ncnc4[nH]ccc34)cc2)CC1 | active |
